experimental_details: small-molecule microarray binders of probe aXIP, primary screen, biochemical, NeuroSMM set, 635/667 nm fluorescence (AID 1119);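 also: probe is the protein aXip251-270 applied at 1 µg/mL to compound-printed slides; binding of probe to printed compounds measured as 667 nm fluorescence plus signal to noise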
condition_details: higher = more signal, called active from +8 up or from −8 down
Entry flag: T if composite Z-score reaches 0.01; F if it does not.

record_smiles	classification
CC(C)(C)OC(=O)CC[C@]1(C(N)=O)COC(c2ccc(OCCCO)cc2)=N1	T
COC(=O)c1c(CC[C@@H](CO)NC(=O)N[C@H](Cc2ccccc2)Cn2cc(-c3ccccc3N)nn2)oc(C(C)=O)c1C(=O)OC	F
[N-]=[N+]=Nc1ccccc1C[C@@]1(C(N)=O)N=C(c2ccc(OCCCO)cc2)O[C@@H]1c1ccccc1	T
COc1ccc(-c2nc3c(c4c2C[C@H](C)OC4)CN(CCC(C)C)CC3)cc1	T
CCCCc1nc2c(c3c1C[C@H](C)OC3)CN(CCC(C)C)CC2	F
